# measured on: T1, human GIP receptor (human, UniProt P48546 22-466)
# T1 sequence (looked up): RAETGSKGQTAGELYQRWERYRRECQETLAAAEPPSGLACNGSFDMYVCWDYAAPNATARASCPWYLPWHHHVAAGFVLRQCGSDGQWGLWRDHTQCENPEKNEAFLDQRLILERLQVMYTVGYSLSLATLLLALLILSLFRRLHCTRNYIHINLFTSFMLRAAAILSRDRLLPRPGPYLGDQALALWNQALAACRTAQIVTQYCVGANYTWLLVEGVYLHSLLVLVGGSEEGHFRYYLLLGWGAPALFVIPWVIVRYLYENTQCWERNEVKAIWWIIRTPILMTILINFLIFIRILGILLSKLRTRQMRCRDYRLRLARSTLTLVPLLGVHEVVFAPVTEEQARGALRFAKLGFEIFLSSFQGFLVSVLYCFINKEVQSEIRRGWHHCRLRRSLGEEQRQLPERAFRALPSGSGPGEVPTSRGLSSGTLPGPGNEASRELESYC
# method description: cell-based or functional assay
Bridge positions count the residues as written; N and C are the ends. Square brackets hold non-standard residues; d marks the D form. Ends that are not written are not given here. C20L5A = not defined here; L5A = not defined here; Aib = CC(C)(N)C(=O)O
quantity measured: EC50 [nM] of receptor-mediated cAMP synthesis (nM)
Give bare numbers, in nM.

Below are worked cases with known answers.
Y[Aib]EGTFISDVSIYCDKQAA[Aib]CFVNWLIAGGPSSGAPPPS-NH2 (linker 14-21 via C20L5A; not fully specified; reading uncertain) [7I, 10V, 27I, C(14-21) - C20L5A]: 303
Y[Aib]EGTFTSDYSIYCDKQAA[Aib]CFVNWLLAGGPSSGAPPPS-NH2 (linker 14-21 via L5A; not fully specified; reading uncertain) [mCMC759 (C(14-21)-L5A)]: 0.03
Y[Aib]EGTFTSDYSIYCDKQAA[Aib]CFVNWLIAGGPSSGAPPPS-NH2 (linker 14-21 via L5A; not fully specified; reading uncertain) [27I, C(14-21)-L5A]: 0.03

// moving on: another record for EC50 [nM] of receptor-mediated cAMP synthesis
Q) Sample Y[Aib]EGTFTSDYSIYCDKQAA[Aib]CFVNWLIAGGPSSGAPPPS-NH2 (linker 14-21 via C20L5A; not fully specified; reading uncertain) [mCMV266 (27I, C(14-21)-C20L5A)] — what was its EC50 [nM] of receptor-mediated cAMP synthesis?
A) 0.07
